Exercise: for every item that follows, state its recorded IC50.
target: cIAP2-BIR3 (Homo sapiens (Human)); assay: BIR binding assay (FRET competition), cIAP2 BIR3
Sequence (Q13489 238-349): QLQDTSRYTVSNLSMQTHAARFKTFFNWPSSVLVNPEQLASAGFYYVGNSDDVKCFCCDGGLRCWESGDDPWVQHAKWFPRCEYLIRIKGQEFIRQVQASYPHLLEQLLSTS

Some solved cases for reference:
Cc1ccc(Cc2cnc3c(c2)N(C(=O)CN2C[C@@H](C)NC[C@@H]2CN2CCO[C@H](COc4cccc(OC[C@@H]5CN(C[C@H]6CN[C@H](C)CN6CC(=O)N6CC(C)(C)c7ncc(Cc8ccc(C)cc8)cc76)CCO5)c4)C2)CC3(C)C)cc1 [Compound 148]	15.8 to 31.6 nM
C[C@@H]1CN(CC(=O)N2CC(C)(C)c3[nH]c(=O)c(Cc4ccc(F)cc4)cc32)[C@@H](CN2CCN(C(=O)c3cccnc3-c3ncccc3C(=O)N3CCN(C[C@H]4CN[C@H](C)CN4CC(=O)N4CC(C)(C)c5[nH]c(=O)c(Cc6ccc(F)cc6)cc54)[C@H](C)C3)C[C@H]2C)CN1 [Example 17]	1.38 to 7.94 nM
C[C@@H]1CN(CC(=O)N2CC(C)(C)c3[nH]c(=O)c(Cc4ccc(F)cc4)cc32)[C@@H](CN2CCC(CN(C)C(=O)c3ccc(C(=O)N(C)CC4CCN(C[C@H]5CN[C@H](C)CN5CC(=O)N5CC(C)(C)c6[nH]c(=O)c(Cc7ccc(F)cc7)cc65)CC4)cc3)CC2)CN1 [Example 96]	7.94 to 15.8 nM

Turning now to a further record.
// sample C[C@@H]1CN(CC(=O)N2CC(C)(C)c3[nH]c(=O)c(Cc4ccc(F)cc4)cc32)[C@@H](CN2CCN(CCCCCCCCCCCCN3CCN(C[C@H]4CN[C@H](C)CN4CC(=O)N4CC(C)(C)c5[nH]c(=O)c(Cc6ccc(F)cc6)cc54)[C@H](C)C3)C[C@H]2C)CN1 [Example 26] , its IC50 was 7.94 to 15.8 nM

---

molecular target: cIAP1-BIR3 (Homo sapiens (Human), UniProt Q13490); test: BIR binding assay (FRET competition), cIAP1 BIR3; settings: fold separation (FS) for cIAP1
Sequence (Q13490 253-363): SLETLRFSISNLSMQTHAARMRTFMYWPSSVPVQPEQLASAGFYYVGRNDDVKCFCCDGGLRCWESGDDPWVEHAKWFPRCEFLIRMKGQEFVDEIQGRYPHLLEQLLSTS
MEASURE: cIAP1 BIR3 vs BIR2 separation window

C[C@@H]1CN(CC(=O)N2CC(C)(C)c3[nH]c(=O)c(Cc4ccc(F)cc4)cc32)[C@@H](CN2CCO[C@H](COc3ccc(C(=O)C(=O)c4ccc(OC[C@@H]5CN(C[C@H]6CN[C@H](C)CN6CC(=O)N6CC(C)(C)c7[nH]c(=O)c(Cc8ccc(F)cc8)cc76)CCO5)cc4)cc3)C2)CN1 [Example 59]	+++ (10,000>FS>1,000)
Cc1ccc(Oc2cc3c([nH]c2=O)C(C)(C)CN3C(=O)CN2C[C@@H](C)NC[C@@H]2CN2CCO[C@H](C(=O)NCc3ccc(CNC(=O)[C@@H]4CN(C[C@H]5CN[C@H](C)CN5CC(=O)N5CC(C)(C)c6[nH]c(=O)c(Oc7ccc(C)cc7)cc65)CCO4)cc3)C2)cc1 [Compound 184]	+++ (10,000>FS>1,000)
C[C@@H]1CN(CC(=O)N2CC(C)(C)c3[nH]c(=O)c(Cc4ccc(F)cc4)cc32)[C@@H](CN2CCN(CCc3cn(CCC(=O)N4CCN(C[C@H]5CN[C@H](C)CN5CC(=O)N5CC(C)(C)c6[nH]c(=O)c(Cc7ccc(F)cc7)cc65)[C@H](C)C4)nn3)C[C@H]2C)CN1 [Compound 154]	+++ (10,000>FS>1,000)

---

Exercise: for every item that follows, state its recorded EC50.
test system: Jurkat HIV-luciferase clones; assay: Jurkat latency reversal assay; assay type: cell-based; conditions: Homo sapiens, 48 h; Jurkat latency reversal assay potency; read-out: Jurkat pEC50 (converted)

C[C@@H]1CN(CC(=O)N2CC(C)(C)c3[nH]c(=O)c(Cc4ccc(F)cc4)cc32)[C@@H](CN2CCO[C@H](COc3ccc(-c4ccccc4)c(OC[C@@H]4CN(C[C@H]5CN[C@H](C)CN5CC(=O)N5CC(C)(C)c6[nH]c(=O)c(Cc7ccc(F)cc7)cc65)CCO4)c3)C2)CN1	0.0126 to 0.0631 µM

Turning now to a further record.
Entry C[C@@H]1CN(CC(=O)N2CC(C)(C)c3[nH]c(=O)c(Cc4ccc(F)cc4)cc32)[C@@H](CN2CCC(CN(C)C(=O)c3cccc(C(=O)N(C)CC4CCN(C[C@H]5CN[C@H](C)CN5CC(=O)N5CC(C)(C)c6[nH]c(=O)c(Cc7ccc(F)cc7)cc65)CC4)c3)CC2)CN1 ; assay system Jurkat HIV-luciferase clones; EC50 recorded at 0.0631 to 0.316 µM

---

system: Jurkat HIV-luciferase clones; assay: Jurkat latency reversal assay; format: cell-based; conditions: Homo sapiens, 48 h; Jurkat latency reversal assay potency; read-out: Jurkat pEC50 (converted)
MEASURE: EC50

C[C@@H]1CN(CC(=O)N2CC(C)(C)c3[nH]c(=O)c(Cc4ccc(F)cc4)cc32)[C@@H](CN2CCO[C@H](C(=O)Nc3cccc(NC(=O)[C@@H]4CN(C[C@H]5CN[C@H](C)CN5CC(=O)N5CC(C)(C)c6[nH]c(=O)c(Cc7ccc(F)cc7)cc65)CCO4)c3)C2)CN1	63.1 to 316 nM

Turning now to a further record.
// sample C[C@@H]1CN(CC(=O)N2CC(C)(C)c3[nH]c(=O)c(Cc4ccc(F)cc4)cc32)[C@@H](CN2CCO[C@H](COCC#CC#CCOC[C@@H]3CN(C[C@H]4CN[C@H](C)CN4CC(=O)N4CC(C)(C)c5[nH]c(=O)c(Cc6ccc(F)cc6)cc54)CCO3)C2)CN1 , its EC50 was 12.6 to 63.1 nM

---

Target: cIAP1-BIR2 (Homo sapiens (Human))
Sequence (Q13490 173-257): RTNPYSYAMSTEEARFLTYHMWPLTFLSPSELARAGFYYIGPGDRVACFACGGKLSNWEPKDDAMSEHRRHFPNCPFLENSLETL
Experiment: BIR binding assay (FRET competition), cIAP1 BIR2
Experimental: The BIR domain binding assays are FRET based competition assays that utilize His-tagged versions of each of the BIR2 and BIR3 domains from cIAP1, cIAP2, and XIAP (each domain assayed separately) each at a custom optimal concentration and a probe, 200 nM SMAC/DIABLO peptide […] labelled with AlexaFluor647 (part #crb 1110326h, Discovery Peptides). The assay is conducted in 50 mM HEPES, […], 1 mM CHAPS, 5% Glycerol, 1 mM DTT, in dI water with a final pH of 7.4 and final volume of 20 uL. […]
MEASURE: IC50

C[C@@H]1CN(CC(=O)N2CC(C)(C)c3ncc(Oc4ccc(F)cc4)cc32)[C@@H](CN2CCO[C@H](COc3cccc(OC[C@@H]4CN(C[C@H]5CN[C@H](C)CN5CC(=O)N5CC(C)(C)c6ncc(Oc7ccc(F)cc7)cc65)CCO4)c3)C2)CN1	10 to 51.3 µM

State recorded IC50 for all listed molecules.
1. C[C@@H]1CN(CC(=O)N2CC(C)(C)c3[nH]c(=O)c(Cc4cc(F)c(F)cc4F)cc32)[C@@H](CN2CCO[C@H](C(=O)NCc3ccc(CNC(=O)[C@@H]4CN(C[C@H]5CN[C@H](C)CN5CC(=O)N5CC(C)(C)c6[nH]c(=O)c(Cc7cc(F)c(F)cc7F)cc65)CCO4)cc3)C2)CN1
2. C[C@@H]1CN(CC(=O)N2CC(C)(C)c3[nH]c(=O)c(Cc4ccc(F)cc4)cc32)[C@@H](CN2CCC[C@@H](NC(=O)CCCCCCC(=O)N[C@@H]3CCCN(C[C@H]4CN[C@H](C)CN4CC(=O)N4CC(C)(C)c5[nH]c(=O)c(Cc6ccc(F)cc6)cc54)C3)C2)CN1
3. C[C@@H]1CN(CC(=O)N2CC(C)(C)c3[nH]c(=O)c(Cc4ccc(F)cc4F)cc32)[C@@H](CN2CCO[C@H](C(=O)NCc3ccc(CNC(=O)[C@@H]4CN(C[C@H]5CN[C@H](C)CN5CC(=O)N5CC(C)(C)c6[nH]c(=O)c(Cc7ccc(F)cc7F)cc65)CCO4)cc3)C2)CN1
4. C[C@@H]1CN(CC(=O)N2CC(C)(C)c3ncc(Cc4ccc(Cl)cc4)cc32)[C@@H](CN2CCO[C@H](COc3cccc(OC[C@@H]4CN(C[C@H]5CN[C@H](C)CN5CC(=O)N5CC(C)(C)c6ncc(Cc7ccc(Cl)cc7)cc65)CCO4)c3)C2)CN1
5. C[C@@H]1CN(CC(=O)N2CC(C)(C)c3[nH]c(=O)c(Cc4ccc(F)cc4)cc32)[C@@H](CN2CCO[C@H](C(=O)N[C@H]3CC[C@H](NC(=O)[C@@H]4CN(C[C@H]5CN[C@H](C)CN5CC(=O)N5CC(C)(C)c6[nH]c(=O)c(Cc7ccc(F)cc7)cc65)CCO4)CC3)C2)CN1

Result:
1 to 3.16 µM
10 to 51.3 µM
1 to 3.16 µM
3.16 to 10 µM
1 to 3.16 µM

State recorded IC50 for all listed molecules.
1. C[C@@H]1CN(CC(=O)N2CC(C)(C)c3ncc(Cc4ccc(F)cc4)cc32)[C@@H](CN2CCN(S(=O)(=O)c3cccc(S(=O)(=O)N4CCN(C[C@H]5CN[C@H](C)CN5CC(=O)N5CC(C)(C)c6ncc(Cc7ccc(F)cc7)cc65)[C@H](C)C4)c3)C[C@H]2C)CN1
2. C[C@@H]1CN(CC(=O)N2CC(C)(C)c3[nH]c(=O)c(Cc4ccc(F)cc4)cc32)[C@@H](CN2CCO[C@H](C(=O)NCCCCCCCCCCNC(=O)[C@@H]3CN(C[C@H]4CN[C@H](C)CN4CC(=O)N4CC(C)(C)c5[nH]c(=O)c(Cc6ccc(F)cc6)cc54)CCO3)C2)CN1
3. C[C@@H]1CN(CC(=O)N2CC(C)(C)c3[nH]c(=O)c(Cc4ccc(F)cc4)cc32)[C@@H](CN2CCN(C(=O)COc3ccc(OCC(=O)N4CCN(C[C@H]5CN[C@H](C)CN5CC(=O)N5CC(C)(C)c6[nH]c(=O)c(Cc7ccc(F)cc7)cc65)[C@H](C)C4)cc3)C[C@H]2C)CN1
4. C[C@@H]1CN(CC(=O)N2CC(C)(C)c3[nH]c(=O)c(Cc4ccc(F)cc4)cc32)[C@@H](CN2CCC(CN(C)Cc3ccc(CN(C)CC4CCN(C[C@H]5CN[C@H](C)CN5CC(=O)N5CC(C)(C)c6[nH]c(=O)c(Cc7ccc(F)cc7)cc65)CC4)cc3)CC2)CN1
5. C[C@@H]1CN(CC(=O)N2CC(C)(C)c3[nH]c(=O)c(Cc4ccc(F)cc4)cc32)[C@@H](CN2CCO[C@H](COc3ccccc3-c3ccccc3OC[C@@H]3CN(C[C@H]4CN[C@H](C)CN4CC(=O)N4CC(C)(C)c5[nH]c(=O)c(Cc6ccc(F)cc6)cc54)CCO3)C2)CN1
6. C[C@@H]1CN(CC(=O)N2CC(C)(C)c3[nH]c(=O)c(Cc4ccc(F)cc4)cc32)[C@@H](CN2CCC(CCNC(=O)c3ccc(C(=O)NCCC4CCN(C[C@H]5CN[C@H](C)CN5CC(=O)N5CC(C)(C)c6[nH]c(=O)c(Cc7ccc(F)cc7)cc65)CC4)cc3)CC2)CN1
7. C[C@@H]1CN(CC(=O)N2CC(C)(C)c3[nH]c(=O)c(Cc4ccc(F)cc4)cc32)[C@@H](CN2CCN(CCCCCCCCCCCCN3CCN(C[C@H]4CN[C@H](C)CN4CC(=O)N4CC(C)(C)c5[nH]c(=O)c(Cc6ccc(F)cc6)cc54)[C@H](C)C3)C[C@H]2C)CN1

Result:
1. 3.16 to 10 µM
2. 1 to 3.16 µM
3. 0.0224 to 1 µM
4. 1 to 3.16 µM
5. 1 to 3.16 µM
6. 3.16 to 10 µM
7. 1 to 3.16 µM

// sample C[C@@H]1CN(CC(=O)N2CC(C)(C)c3[nH]c(=O)c(Cc4ccc(F)cc4)cc32)[C@@H](CN2CCN(C(=O)COc3cccc(OCC(=O)N4CCN(C[C@H]5CN[C@H](C)CN5CC(=O)N5CC(C)(C)c6[nH]c(=O)c(Cc7ccc(F)cc7)cc65)[C@H](C)C4)c3)C[C@H]2C)CN1 , its IC50 was 1 to 3.16 µM
